biological target: UniProt Q8NER1
reported endpoint: pKd
Interpret pKd as the negative base-10 log of the concentration measured in mol/L.

[ask] Looking for the measured pKd of "C=C(C)[C@@H]1CCC(C)=C[C@H]1c1c(O)cc(CCCCC)cc1O" , can you help?
[reply] 3.96

* * *

molecular target: Transient receptor potential cation channel subfamily V member 1 (Homo sapiens, UniProt Q8NER1); test: Agonist activity at human TRPV1 overexpressed in HEK293 cells incubated for 1 hr by Fluo-4 AM dye based microscopic analysis
Sequence (Q8NER1 whole entry): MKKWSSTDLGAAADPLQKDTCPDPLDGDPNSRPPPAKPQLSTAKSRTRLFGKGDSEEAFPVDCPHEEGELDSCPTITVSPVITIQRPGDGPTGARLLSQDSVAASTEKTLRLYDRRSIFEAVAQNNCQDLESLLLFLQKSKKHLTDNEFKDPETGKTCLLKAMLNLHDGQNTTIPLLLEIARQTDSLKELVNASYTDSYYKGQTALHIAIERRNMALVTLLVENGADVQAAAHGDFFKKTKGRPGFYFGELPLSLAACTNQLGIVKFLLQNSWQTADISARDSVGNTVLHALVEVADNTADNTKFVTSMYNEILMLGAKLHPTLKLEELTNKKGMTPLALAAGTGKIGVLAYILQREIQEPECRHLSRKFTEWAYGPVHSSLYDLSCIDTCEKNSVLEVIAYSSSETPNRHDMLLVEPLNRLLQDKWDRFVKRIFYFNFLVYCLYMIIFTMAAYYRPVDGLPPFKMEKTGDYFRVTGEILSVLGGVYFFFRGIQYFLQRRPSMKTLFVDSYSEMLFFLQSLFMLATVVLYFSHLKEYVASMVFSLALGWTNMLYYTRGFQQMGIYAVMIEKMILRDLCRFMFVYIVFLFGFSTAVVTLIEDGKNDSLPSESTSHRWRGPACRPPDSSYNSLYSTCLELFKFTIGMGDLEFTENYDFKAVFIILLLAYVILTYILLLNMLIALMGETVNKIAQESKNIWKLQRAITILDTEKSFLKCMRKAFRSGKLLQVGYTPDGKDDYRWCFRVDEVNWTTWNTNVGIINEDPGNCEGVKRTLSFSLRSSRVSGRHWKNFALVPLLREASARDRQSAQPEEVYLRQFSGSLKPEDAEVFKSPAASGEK
// values below are reported log10 EC50
// do not treat as linear: log10 of EC50, unit µM

Examples from the recorded data:
{"structure": "CCCCCc1cc(O)c(NS(=O)(=O)c2cccc3cccnc23)c(O)c1", "endpoint value": 1.56}
{"structure": "CCCCCc1cc(O)c(NC(=O)Nc2cccc3ncccc23)c(O)c1", "endpoint value": 1.61}
{"structure": "CCCCCc1cc(O)c(NS(=O)(=O)c2cc(F)cc(F)c2)c(O)c1", "endpoint value": 1.60}

[ask] Looking for the measured log10 EC50 of "CCCCCc1cc(O)c(NC(=O)c2ccc(=O)oc2)c(O)c1" , can you help?
[reply] 1.85

[ask] // query: "CCCCCc1cc(O)c(NS(=O)(=O)c2ccc(-c3ccccc3)cc2)c(O)c1"
[reply] 0.65

[ask] // query: "CCCCCc1cc(O)c(NS(=O)(=O)c2cccc(C(F)(F)F)c2)c(O)c1"
[reply] 1.02

[ask] // query: "C=C(C)[C@@H]1CCC(C)=C[C@H]1c1c(O)cc(CCCCC)cc1O"
[reply] 1.59
